# measurement description: NCI Yeast Anticancer Drug Screen. Data for the rad50 strain (AID 155);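 also: 0% = growth of vehicle-only cultures of the same strain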
# run conditions: S. cerevisiae rad50 strain growth inhibition; at 5.0 µM (retest, dose inferred, filed as 0.5); hits give high values
About 79,000 compounds went through this panel and 15% of them were active in at least one assay; those are over-represented in the sample as a whole.
measured property: growth inhibition (%)
State just the number; it will be interpreted in %.

compound: O=C(O)Cc1cccc(O)c1
value units: %
growth inhibition: 0
//
compound: CC(NC(=O)C(Cc1ccccc1)NC(=O)c1ccc[n+](Cc2ccccc2)c1)C(N)=O (stereo unspecified)
value units: %
growth inhibition: 0

Endpoint output: growth inhibition of CC1C(=O)C(Br)CC2C1(C)CCC1C2(C)CCC2(C)C3CC(C)(C)CCC3(C)CCC12C (stereo unspecified) . Value?
6

What value of measured growth inhibition is listed for O=C(CCCCOCCCCC(=O)OCC1CCCO1)OCC1CCCO1 (stereo unspecified) ?
-1

---

Attribute: growth inhibition
# measurement description: NCI Yeast Anticancer Drug Screen. Data for the rad50 strain (AID 155);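 also: 0% = growth of vehicle-only cultures of the same strain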
# run conditions: S. cerevisiae rad50 strain growth inhibition; at 50.0 µM; hits give high values
The panel holds about 79,000 compounds, 15% with a hit somewhere; the sample as a whole holds those more often.
Note: unit % is implicit; provide only the numeric part.

Please review the following examples before continuing.
compound: O=c1onc(-c2ccc(Cl)cc2)c2ccccc12
value units: %
growth inhibition: 6.6
//
compound: CC(=O)OCCCCCCCCCCCCCCO
value units: %
growth inhibition: 50
//
compound: CC(=O)OCC1OC(SSc2ccccc2)C(OC(C)=O)C(OC(C)=O)C1OC(C)=O (stereo not drawn)
value units: %
growth inhibition: 59.4
//
compound: NC(c1ccccc1)P(=O)(OCc1ccc([N+](=O)[O-])cc1)OCc1ccc([N+](=O)[O-])cc1 (stereo not drawn)
value units: %
growth inhibition: 57.2
//
compound: Clc1nc2ccccc2nc1N1CCCCCC1
value units: %
growth inhibition: -17.5

Report growth inhibition for CC1(C)[C@@H]2CC[C@]1(C)[C@@H](OC(=O)CSC#N)C2 please.
99.4

# input compound: Clc1cc2ccccc2c2ccccc12 ; wanted: its growth inhibition
84.6

Quick one: growth inhibition for N=c1n(CC(=O)NC23CC4CC(CC(C4)C2)C3)c2ccccc2n1Cc1ccc(Cl)cc1 ?
92.5

// growth inhibition lookup, key: O=c1c2cc(Cl)ccc2[nH]c2cc(O)cc(O)c12
70.5

Which measured growth inhibition value corresponds to CS(=O)(=O)OCCN(CCOS(C)(=O)=O)c1ccc(C=Nc2ccc(-c3csc(-c4ccc(Cl)cc4)n3)cc2)cc1 ?
92.5

Bench note: what growth inhibition did CCCCCC[C@@H](O)C/C=C\CCCCCCCC(=O)OCCCC show?
23.6

growth inhibition lookup needed for COc1cc(CC(=O)O)c(Cc2ccc3c(c2)Cc2ccccc2-3)cc1OC , thanks.
49

Dear colleague, I am looking for the recorded growth inhibition of the following compound: O=C(/C=C/C(=O)N1CCCC1)N1CCCC1
1.15

Need growth inhibition of CCCCCCCCCCCCCCCC1C(N)C(=O)N(C)N1C (stereo not drawn) , thanks.
89.7

---

# measurement description: NCI Yeast Anticancer Drug Screen. Data for the sgs1 mgt1 strain (AID 161);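 also: 0% = growth of cultures given vehicle only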
# run conditions: S. cerevisiae sgs1 mgt1 strain, at 5.0 µM (retest, dose inferred, filed as 0.5), hits give high values
The panel holds about 79,000 compounds, 15% with a hit somewhere; the sample as a whole holds those more often.
Threshold check on growth inhibition: at or above 20% gives fulfilled, strictly below gives not fulfilled.

chem smiles: C=CCCCCCCCCC(=O)OCC=C
category label: not fulfilled
--
chem smiles: C[C@]12CC[C@@H]3c4ccc(O)cc4CC[C@H]3[C@@H]1CC[C@@H]2NCCCCCCO
category label: not fulfilled
--
chem smiles: CC(=O)Oc1c(C)cc(C)cc1Cc1cc(C(C)=O)cc(Cc2cc(C)cc(C)c2OC(C)=O)c1OC(C)=O
category label: fulfilled
--
chem smiles: CCN(CC)Cc1ccc(Nc2cc(C)nc(/N=C(\N)Nc3ccc(Cl)c(Cl)c3)n2)cc1
category label: fulfilled

--- query ---
Does the compound COc1ccc(C2C(C#N)(C#N)C2(C#N)C#N)cc1 have recorded growth inhibition that is 20% or more?
fulfilled

---

growth inhibition listing for selected compounds.
# measurement description: NCI Yeast Anticancer Drug Screen. Data for the cln2 rad14 strain (AID 165);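 also: 0% = growth equal to vehicle treated cultures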
# run conditions: S. cerevisiae cln2 rad14 strain, at 5.0 µM (retest, dose inferred, filed as 0.5), hits give high values
About 79,000 compounds went through this panel and 15% of them were active in at least one assay; those are over-represented in the sample as a whole. Active and inactive are the calls of the source. No stated cut-off is given here; in the data, active means growth inhibition above about 70%; inactive means the rest.

Returns the measured growth inhibition for the input compound. Input: N#CC(C#N)=C(C1CC1)C1CC1
-56% (inactive)

// returns reported growth inhibition for input Fc1ccc(NC(=S)SCc2ccccc2)cc1
-7% (inactive)

Could you tell me which growth inhibition is on file for CCOc1ccc2nc(C)cc(C)c2c1 ?
1% (inactive)

Please look up its growth inhibition: Clc1cc[c]([Sn]([O][Sn]([c]2ccc(Cl)cc2)([c]2ccc(Cl)cc2)[c]2ccc(Cl)cc2)([c]2ccc(Cl)cc2)[c]2ccc(Cl)cc2)cc1
99% (active)

If you can, please state the reported growth inhibition value of O=S(=O)(Nc1ccccc1-c1ccc(Cl)cc1)c1ccccc1 .
-12% (inactive)

# query: growth inhibition of entry C=CCc1ccc(OC(=O)CCl)c(OC)c1
2% (inactive)

Looking for the measured growth inhibition of CCc1ccccc1NC1=C(Cl)C(=O)c2ccccc2C1=O , can you help?
77% (active)

---

# measurement description: NCI Yeast Anticancer Drug Screen. Data for the bub3 strain (AID 167)
# run conditions: S. cerevisiae bub3 mutant strain, at 50.0 µM (retest, dose inferred, filed as 5.0)
About 79,000 compounds went through this panel and 15% of them were active in at least one assay; those are over-represented in the sample as a whole. Calls of active or inactive are those of the source. Rule as the data show it: active = growth inhibition above about 70%; inactive = the rest.
Please state which outcome applies, choosing from T = active, F = inactive

Solved entries:
compound: N#CSCCl
category label: T
//
compound: Clc1ccccc1N1CCN(c2c3c(nc4ccccc24)CCCCC3)CC1
category label: T
//
compound: Nc1cccc2c1[nH]c(=O)c1ccccc12
category label: T

Would you mind telling me which call this test gave COc1ccc(-c2c3c(cc4cc5c(cc24)OCO5)C(=O)OC3)cc1OC ?
T

Per the assay record, what outcome was assigned to C\C=C/C=C/C=C/C(=O)O ?
F

Per the records of this test, what outcome belongs to C1=C(C2=CCCc3ccccc32)c2ccccc2CC1 ?
F

Write down the call the test reported for this compound. Item: Cc1ccc(N2CC3CC4(C)C=CC3(C2)O4)cc1 (configuration not stated)
F

---

# measurement description: NCI Yeast Anticancer Drug Screen. Data for the rad50 strain (AID 155);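 also: 0% = growth of vehicle-only cultures of the same strain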
# run conditions: S. cerevisiae rad50 strain growth inhibition; at 50.0 µM (retest, dose inferred, filed as 5.0); hits give high values
Compounds without any hit were thinned out: in the full panel of roughly 79,000, 15% have a hit.
growth inhibition by entry:
Number only, in %; omit the unit.

Example entries and their recorded answers appear below.
compound: C(=N\Nc1c2ccccc2nc2ccccc12)/c1ccc2c(c1)OCO2
value units: %
value observed: 97
//
compound: CCCCCOC(=O)c1ccc(O)cc1
value units: %
value observed: 98
//
compound: Cc1ccccc1Sc1ccccc1[N+](=O)[O-]
value units: %
value observed: 35
//
compound: Cc1cc2c(cc1S(=O)(=O)O)C1C(C3C2C2(Cl)C(Cl)=C(Cl)C3(Cl)C2(Cl)Cl)C2(Cl)C(Cl)=C(Cl)C1(Cl)C2(Cl)Cl (centres undefined)
value units: %
value observed: 69
//
compound: N#CC(C(=O)CCCC(=O)Nc1ccc(Cl)cc1)c1ccccc1Cl (centres undefined)
value units: %
value observed: 0
//
compound: C/C(=N\NC(=S)NNC(=S)N1CCCc2ccccc21)c1ccccn1
value units: %
value observed: 96
//
compound: CCCCCCCCCCCCCCCC[N+](C)(C)CC(=O)O
value units: %
value observed: 92
//
compound: Cc1ccc2c(c1)C1(SCC(=O)N1c1ccc(Cl)cc1)C(=O)N2 (centres undefined)
value units: %
value observed: 57

Give its growth inhibition value. Item: O=C(Cc1ccccc1)c1ccccc1C(=O)NNc1ccccc1
18

Name the reported growth inhibition value associated with the compound CCOC(=O)/C(=C/c1ccccc1Br)P(=O)(OCC)OCC
39

---

# measurement description: NCI Yeast Anticancer Drug Screen. Data for the mec2-1 strain (AID 157)
# run conditions: S. cerevisiae mec2-1 strain, at 50.0 µM (retest, dose inferred, filed as 5.0)
About 79,000 compounds went through this panel and 15% of them were active in at least one assay; those are over-represented in the sample as a whole. Active and inactive are the calls of the source. No stated cut-off is given here; in the data, active means growth inhibition above about 70%; inactive means the rest.
Mark one answer only. Choices: active, inactive

molecule: N#CC(C#N)=Cc1ccc(Oc2ccccc2)cc1
category label: inactive

Look up the recorded call for CCC(C)N(C(=O)c1ccccc1)c1ccccc1 (configuration not stated) in this test.
inactive

Please indicate how the test categorized COc1cc2c(cc1O)C(O)CCCC2 (configuration not stated) .
inactive

Answer briefly: the call reported for CCOC(=O)CC(N)CC(=O)OCC in this assay.
inactive

Assay outcome for CCOc1ccc2c(c1)n([O-])c1cc(Br)ccc1[n+]2=O : what was it?
active

Please state the recorded outcome for this molecule: CCCCN(CCCC)C(=O)c1ccc(OC(=O)OCC)c(OC)c1
inactive

What was the test verdict on O=C(CBr)c1cccc(OC(=O)c2ccccc2)c1 ?
active

// param item: COc1cccc(C=O)c1O ; yields the recorded call
inactive

Lab log entry: Cc1ccccc1NCc1ccccc1Cl — outcome as called in the assay?
active

Outcome? C=CCOc1cc(NC(=S)c2sccc2C)ccc1Cl
active

I'd appreciate the recorded outcome for CSc1cc(N)nc(N)n1 from this test.
inactive

// return assay outcome for CCOC1NC(=S)N(C2CCCCC2)C1(C)C (configuration not stated)
inactive

Lab log entry: Cc1cccc(C)c1N=Nc1c(C)nc(N)nc1-c1ccccc1 — outcome as called in the assay?
active

Recorded test call requested for COc1ccc2c(c1)S(=O)(=O)C(c1ccccc1)=CC2=O
active

What classification did O=C(N/C(=C\c1ccc([N+](=O)[O-])cc1)c1nc2ccccc2s1)c1ccccc1 end up with in this test?
inactive

Tell me the assay call for Cc1c(O)ccc(C(=O)CCl)c1O please.
inactive

Answer briefly: the call reported for O=Cc1ccc(O)cc1O in this assay.
inactive

What call does the record list for CCSC(=Nc1nc2ccc(NC(C)=O)cc2s1)SCC ?
active

Could you check what this test reported for O=C1c2c(F)c(F)c(F)c(F)c2SC2=NCCN12 ?
active

In this assay, the call recorded for CCC1CCC2=C(C1)C(=O)c1ccccc1C2=O (configuration not stated) was what?
active

What outcome does the record of this test show for CC(=O)OC1CCC2(C)C3CCC4(C)C(CCC4(Br)C(=O)CBr)C3CC(Br)C2(Br)C1 (configuration not stated) ?
inactive
